PROTOCOL_SUMMARY: BSK_4H_Eotaxin3: BioMAP Diversity Plus: 4H Assay for Eotaxin 3 Biomarker Activity (AID 2283000)
MEASUREMENT_CONDITIONS: primary human endothelial cells (HUVEC); actives raise or lower the signal
The source made the active and inactive calls. How the source made its calls: active means hit-call score of the fitted dose curve at least 0.9, where 1 is the maximum; inactive means score below 0.9.
QUANTITY_NAME: AC50

Look over these answered cases.
COMPOUND | RECORDED_RESULT
CCCCOC(=O)[C@@H](C)Oc1ccc(Oc2ccc(C(F)(F)F)cn2)cc1 | inactive
O=C(O)c1ccccc1 | inactive
c1ccc2[nH]c(-c3cscn3)nc2c1 | inactive
CCCCC(CC)CN1C(=O)C2C3C=CC(C3)C2C1=O (stereo not drawn) | inactive
CCN(CC)C(=O)c1cccc(C)c1 | inactive

Ask: What value of measured AC50 is listed for `O=C(c1ccc(O)cc1O)c1ccc(O)cc1O` ?
Result: inactive

Ask: What value of measured AC50 is listed for `CCCOC(=O)c1ccc(C(=O)OCCC)nc1` ?
Result: inactive

Ask: What value of measured AC50 is listed for `COC(=O)c1ccc(I)cc1S(=O)(=O)NC(=O)Nc1nc(C)nc(OC)n1` ?
Result: inactive

Ask: What value of measured AC50 is listed for `N[C@@H](Cc1cc(I)c(Oc2ccc(O)c(I)c2)c(I)c1)C(=O)O` ?
Result: 16 µM (active)

Ask: What value of measured AC50 is listed for `COC(=O)c1ccc(CNS(C)(=O)=O)cc1S(=O)(=O)NC(=O)Nc1nc(OC)cc(OC)n1` ?
Result: inactive
